Test: AUC ratio of drug uptake from brain to plasma in mouse
Type: ADME, organism-based
REPORTED_PROPERTY: Kp
Format: numeric value only, no unit, no commentary.

Kp in this record for CC(=O)N1N=C(c2cc(F)ccc2F)S[C@@]12c1cc(F)c(F)cc1OC[C@H]2CCN : 4

* * *

Experiment: AUC in Sprague-Dawley rat at 50 mg/kg, po
Assay type: ADME, organism-based
Parameters: dose 50 mg/kg, route oral
Conditions: plasma
REPORTED_PROPERTY: AUC (µM·h)
// note: answer is a bare numeric in µM·h

The value of AUC measured for the molecule CC(=O)N1N=C(c2cc(F)ccc2F)S[C@@]12c1ccccc1OC[C@H]2CCN turned out to be 3.6

* * *

Item-by-item account of AUC
Experiment: AUC in CD1 mouse at 5 mg/kg, iv
Format: ADME, organism-based
Set-up: dose 5 mg/kg, route intravenous
Conditions: plasma
Kindly provide the numeric value in µM·h only, without the unit symbol.

Looking up CC(=O)N1N=C(c2cc(F)ccc2F)S[C@@]12c1cc(F)ccc1OC[C@H]2CCN , I see its AUC listed as 2.6

// field: AUC; key: CC(=O)N1N=C(c2cc(F)ccc2F)S[C@@]12c1cc(F)cc(F)c1OC[C@H]2CCN ; value = 6.5

Reported AUC of CC(=O)N1N=C(c2cc(F)ccc2F)S[C@@]12c1cc(F)c(F)cc1OC[C@H]2CCN : 4.6

Just so you know, measured AUC for CC(=O)N1N=C(c2cc(F)ccc2F)S[C@@]12c1ccccc1OC[C@H]2CCN came out at 2.3

AUC reading for CC(=O)N1N=C(c2cc(F)ccc2F)S[C@@]12c1cccc(F)c1OC[C@H]2CCN : 1.5

* * *

Assay: Oral bioavailability in beagle dog at 10 mg/kg
Format: ADME, organism-based, Canis lupus familiaris
Details: in vivo
REPORTED_PROPERTY: bioavailability

The value of bioavailability measured for the compound CC(=O)N1N=C(c2cc(F)ccc2F)S[C@@]12c1cc(F)c(F)cc1OC[C@H]2CCN turned out to be 44%

* * *

Assay: Cmax in CD1 mouse at 10 mg/kg, po
Type: ADME, organism-based
Design: dose 10 mg/kg, route oral
Conditions: in vivo
# Cmax values compiled below
Report only the number, with the unit nM understood.

CC(=O)N1N=C(c2cc(F)ccc2F)S[C@@]12c1cc(F)ccc1OC[C@H]2CCN ... 770
CC(=O)N1N=C(c2cc(F)ccc2F)S[C@@]12c1cc(F)cc(F)c1OC[C@H]2CCN ... 1200
CC(=O)N1N=C(c2cc(F)ccc2F)S[C@@]12c1cccc(F)c1OC[C@H]2CCN ... 430

Field: next compound
The compound identified as CC(=O)N1N=C(c2cc(F)ccc2F)S[C@@]12c1cc(F)c(F)cc1OC[C@H]2CCN registered its Cmax at 1030

* * *

Assay: Permeability across basolateral to apical side in human Caco2 cells
Assay type: ADME, cell-based
Details: Caco-2, read-out: permeability
REPORTED_PROPERTY: Papp B→A (×10⁻⁶ cm/s)
Please respond with the number in ×10⁻⁶ cm/s and leave the unit unwritten.

Per the records, this compound ( CC(=O)N1N=C(c2cc(F)ccc2F)S[C@@]12c1cc(F)c(F)cc1OC[C@H]2CCN ) has Papp B→A equal to 11.5
